Values were extracted from PubChem BioAssay AID504465.

test details: IN Cell qHTS Assay for Inhibitors of the mTORC1 Signaling Pathway in MEF (Tsc2-/-, p53-/-) Cells: Sytravon; further: nearly all actives have a fitted effect of over 60% in size
measurement parameters: phospho-rpS6 immunofluorescence, 24 h; series mostly up to 38.3 µM
Screen size: about 2,100 compounds; about 210 (10%) were called active. Not shown: some 53% with an inconclusive outcome. The call rests on the fitted dose curve; in most records, active means well fitted inhibition curve with a large enough effect; inconclusive means small, poorly fitted or top-dose-only effect, or effect the other way; inactive means no such curve, though single readings can be large or run the other way. This is one part of the list.
// classify into active, inactive

As a guide, the following entries are already answered.
In [3]: df
Out[3]:
                                   compound  classification
0  Cc1cc(Cl)ccc1NC(=O)C1CCCN1S(=O)(=O)c1ccc2c(c1)CCCC(=O)N2 (stereo unspecified)        inactive
1        O=C1Nc2ccccc2Oc2cc(Oc3ccccc3)ccc21        inactive
2  CC1CCCCN1S(=O)(=O)c1ccc(C(=O)Nc2sc3c(c2C(N)=O)CC(C)(C)NC3(C)C)cc1 (stereo unspecified)        inactive
3  COc1ccc(Nc2cc(C(=O)NCCCN3CCN(c4ccc(OC)cc4)CC3)c3ccccc3n2)cc1        inactive

QUERY: So what was the verdict on Cc1cccc(C(CC(=O)NCC2(c3ccccc3)CCCC2)c2ccccc2)c1O (stereo unspecified) in this test?
RESULT: inactive

QUERY: So what was the verdict on COc1ccc(N2C(=O)CCSC23C(=O)N(Cc2ccc(F)cc2)c2ccccc23)cc1Cl (stereo unspecified) in this test?
RESULT: inactive

QUERY: So what was the verdict on CSc1cccc(NC(=O)Cn2cnc(S(=O)(=O)N3CCCC3)c2)c1 in this test?
RESULT: inactive
